Tested on: Pseudomonas aeruginosa
Test: Antibacterial activity against Pseudomonas aeruginosa ATCC 27853 by microbroth dilution method
Format: functional
Binary label based on MIC with cut-off 200 µM: below gives Y, not below gives N.

{"Compound": "O=C(/C(=C/c1c[nH]c2cc(Cl)ccc12)Oc1ccc2c(CN(CCO)CCO)cc(=O)oc2c1)c1nccs1", "Label Value": "Y"}
{"Compound": "O=C(/C(=C/c1ccc(Cl)cc1)Oc1ccc2c(CN(CCO)CCO)cc(=O)oc2c1)c1nccs1", "Label Value": "N"}
{"Compound": "Cc1ccc2c(/C=C(\\Oc3ccc4c(CN(CCO)CCO)cc(=O)oc4c3)C(=O)c3nccs3)c[nH]c2c1", "Label Value": "Y"}
{"Compound": "O=C(/C(=C/c1c[nH]c2ccccc12)Oc1ccc2c(CN(CCO)CCO)cc(=O)oc2c1)c1nccs1", "Label Value": "N"}
{"Compound": "CCn1cc(/C=C(\\Oc2ccc3c(CN(CCO)CCO)cc(=O)oc3c2)C(=O)c2nccs2)c2ccccc21", "Label Value": "Y"}
{"Compound": "O=C(/C(=C/c1ccc([N+](=O)[O-])cc1)Oc1ccc2c(CN(CCO)CCO)cc(=O)oc2c1)c1nccs1", "Label Value": "N"}
{"Compound": "O=C(/C(=C/c1ccc(Br)cc1)Oc1ccc2c(CN(CCO)CCO)cc(=O)oc2c1)c1nccs1", "Label Value": "N"}
{"Compound": "CCn1cc(C(=O)O)c(=O)c2cc(F)c(N3CCNCC3)cc21 [NORFLOXACIN]", "Label Value": "Y"}
{"Compound": "O=C(/C(=C/c1ccc(F)cc1)Oc1ccc2c(CN(CCO)CCO)cc(=O)oc2c1)c1nccs1", "Label Value": "N"}
{"Compound": "COc1ccc(/C=C(\\Oc2ccc3c(CN(CCO)CCO)cc(=O)oc3c2)C(=O)c2nccs2)cc1", "Label Value": "N"}
{"Compound": "O=C(COc1ccc2c(CN(CCO)CCO)cc(=O)oc2c1)c1nccs1", "Label Value": "N"}
{"Compound": "Cc1ccc(/C=C(\\Oc2ccc3c(CN(CCO)CCO)cc(=O)oc3c2)C(=O)c2nccs2)cc1", "Label Value": "N"}
{"Compound": "O=C(/C(=C/c1ccc(Cl)cc1Cl)Oc1ccc2c(CN(CCO)CCO)cc(=O)oc2c1)c1nccs1", "Label Value": "N"}
{"Compound": "O=C(/C(=C/c1ccccc1)Oc1ccc2c(CN(CCO)CCO)cc(=O)oc2c1)c1nccs1", "Label Value": "N"}
{"Compound": "O=C(/C(=C/c1ccccc1Cl)Oc1ccc2c(CN(CCO)CCO)cc(=O)oc2c1)c1nccs1", "Label Value": "N"}

###

Test system: Enterococcus faecalis
Test: Antibacterial activity against Enterococcus faecalis by microbroth dilution method
Assay type: functional
Listing of recorded log10(MIC) by entry.
Measure Name: log10(MIC) (log10 of the value in µM)

{"Entry Smiles": "O=C(/C(=C/c1ccc(Br)cc1)Oc1ccc2c(CN(CCO)CCO)cc(=O)oc2c1)c1nccs1", "Measure Name": "log10(MIC)", "Recorded Measurement": 2.13}
{"Entry Smiles": "O=C(/C(=C/c1ccc(Cl)cc1Cl)Oc1ccc2c(CN(CCO)CCO)cc(=O)oc2c1)c1nccs1", "Measure Name": "log10(MIC)", "Recorded Measurement": 2.36}
{"Entry Smiles": "O=C(COc1ccc2c(CN(CCO)CCO)cc(=O)oc2c1)c1nccs1", "Measure Name": "log10(MIC)", "Recorded Measurement": 2.50}
{"Entry Smiles": "Cc1ccc2c(/C=C(\\Oc3ccc4c(CN(CCO)CCO)cc(=O)oc4c3)C(=O)c3nccs3)c[nH]c2c1", "Measure Name": "log10(MIC)", "Recorded Measurement": 1.18}
{"Entry Smiles": "O=C(/C(=C/c1ccc([N+](=O)[O-])cc1)Oc1ccc2c(CN(CCO)CCO)cc(=O)oc2c1)c1nccs1", "Measure Name": "log10(MIC)", "Recorded Measurement": 2.08}
{"Entry Smiles": "O=C(/C(=C/c1c[nH]c2cc(Cl)ccc12)Oc1ccc2c(CN(CCO)CCO)cc(=O)oc2c1)c1nccs1", "Measure Name": "log10(MIC)", "Recorded Measurement": 1.76}
